compounds and their reported GI50
test system: NCI-H226; assay: NCI tumour cell line growth inhibition, 48 h
Calls of active or inactive are those of the source. Rule as the data show it: active = GI50 up to about 1.1 µM and inactive = higher.

Completed entries (count: 2):
CC(=O)Nc1cc(C(=O)Nc2cc(C(=O)Nc3cc(C(=O)Nc4cc(C(=O)Nc5cc(C(=O)NCCC(=O)NCCCN(C)C)n(C)c5)n(C)c4)n(C)c3)n(C)c2)n(C)c1 : > 100 µM (inactive)
Cc1ccc(OP(=O)(Oc2ccc(C)cc2)N2C=Cc3ccccc3C2C#N)cc1 (stereo not given) : > 100 µM (inactive)

Task item: Reported GI50, compound COC(=O)CCC(=O)N1CC1C (stereo not given) : ____
Reply: > 100 µM (inactive)

Task item: Reported GI50, compound "O=CCCn1[nH]c(=O)ccc1=O" : ____
Reply: > 100 µM (inactive)

Task item: Reported GI50, compound CC(=O)N1c2ccccc2C2=NN=C(N(C)C)SC21 (stereo not given) : ____
Reply: 3.12 µM (inactive)

* * *

tested on: M14; assay: NCI tumour cell line growth inhibition, 48 h
Active and inactive are the calls of the source. No stated cut-off is given here; in the data, active = GI50 up to about 1.1 µM and inactive = higher.
Use one of these outcomes when replying: active, inactive

These recorded examples may help you get a feel for the data.
O=C(NCCCCCCNC(=O)c1cccc2ccccc12)c1cccc2ccccc12 : inactive
COCC12CC(CC1=O)C1C2ON2c3ccccc3C(=O)C12c1ccccc1 (centres undefined) : inactive
CCOC(=O)c1c(N2CCOCC2)[nH]c(=O)c(C(c2ccc(N(C)C)cc2)c2c(O)c(C(=O)OCC)c(N3CCOCC3)[nH]c2=O)c1O : inactive
COC(=O)C(=O)C(CC(=O)Nc1ccc(C)cc1)C(=O)OC (centres undefined) : inactive
COC(=O)/C=C(\C)CCC1SC1(C)C (centres undefined) : inactive
CC(Oc1ccc(OCC2CCCCC2)cc1)C(=O)NCCO (centres undefined) : inactive
C=C1CC(Cn2ccc(=O)[nH]c2=O)(c2ccc(OC)cc2)OC1=O (centres undefined) : inactive
COc1cc2c(cc1OC)C(=O)/C(=C/c1cc(C)cc(C)c1)C2 : active
OC1COC2CC(Nc3ccccn3)OC12 (centres undefined) : inactive
Nc1cc2[nH]c(=O)c3cc(Cl)ccc3c2cc1Cl : inactive

Task item: Entry "CN(c1ccccc1)c1cc2ccccc2nn1" : call = ?
Reply: inactive

Task item: Entry "CNc1ccccc1-c1nc2ccccc2c(=O)o1" : call = ?
Reply: inactive

Task item: Entry Clc1ccc(C2=NOC3C4CCC(C4)C23)cc1 (centres undefined) : call = ?
Reply: inactive

* * *

compounds and their reported GI50
test system: MDA-MB-435; assay: NCI tumour cell line growth inhibition, 48 h
Calls of active or inactive are those of the source. Rule as the data show it: active = GI50 up to about 1.1 µM and inactive = higher.

O=C1C(N2CCOCC2)=C(Cl)C(=O)c2ncccc21 : 1.73 µM (inactive)

Consider now this further compound.
Task item: Reported GI50, compound O=C(O)c1cc2c(cc1CC(Cc1ccccc1)C(=O)O)CCC2 (stereo unspecified) : ____
Reply: > 100 µM (inactive)

* * *

compounds and their reported GI50
test system: BT-549; experiment: NCI tumour cell line growth inhibition, 48 h
Calls of active or inactive are those of the source. No stated cut-off is given here; in the data, active = GI50 up to about 1.1 µM and inactive = higher.

CC(O)(CNS(=O)(=O)c1ccccc1)c1ccccc1 (stereo unspecified) : > 100 µM (inactive)
O=C1/C(=C/c2ccccc2)CCc2ccccc21 : 16.2 µM (inactive)
O/N=C(/C(Cl)=C(Cl)Cl)C(Cl)Cl : 21.3 µM (inactive)

Task item: Reported GI50, compound "CN(N=O)c1ccc(/C=C/c2ccnc3ccccc23)cc1" : ____
Reply: > 100 µM (inactive)

Task item: Reported GI50, compound "CCCC(=O)OCOC(=O)N(C)/N=N/c1ccc(C(=O)OCC)cc1" : ____
Reply: 26.8 µM (inactive)

Task item: Reported GI50, compound COc1ccc(C(SCC(N)C(=O)O)(c2ccc(OC)cc2)c2ccc(OC)cc2)cc1 (stereo unspecified) : ____
Reply: 12.8 µM (inactive)

Task item: Reported GI50, compound "O=C(CNc1ccccc1[N+](=O)[O-])Nn1c(-c2ccccc2)nc2ccccc2c1=O" : ____
Reply: 17.9 µM (inactive)

Task item: Reported GI50, compound "O=c1c2cc(I)ccc2nc(SCc2nnco2)n1Cc1ccccc1" : ____
Reply: > 100 µM (inactive)

Task item: Reported GI50, compound "CCOP(=O)(/C=C\n1ccc(=O)[nH]c1=O)OCC" : ____
Reply: > 100 µM (inactive)

Task item: Reported GI50, compound COC(=O)N1C2C(C[C@@]1(C)C(=O)OC)c1ccccc1N2S(=O)(=O)c1ccccc1 (stereo partly specified) : ____
Reply: > 100 µM (inactive)

Task item: Reported GI50, compound "O=C(COc1ccc(Cl)cc1Cl)N/N=C/C=C/c1ccc([N+](=O)[O-])o1" : ____
Reply: 12.1 µM (inactive)

* * *

molecules and their reported GI50
test system: OVCAR-8; assay: NCI tumour cell line growth inhibition, 48 h
Activity calls are given as the source filed them. Cut-off read from the data, not from the text of the source: active = GI50 up to about 1.1 µM and inactive = higher.

O=C1CCN(CCC(F)(F)C(F)(F)C(F)(F)C(F)(F)F)C(=S)N1 : > 100 µM (inactive)
O=c1[nH]nc2ccccc2c1Cl : 21.2 µM (inactive)
CC(C)=Cc1cc(C(=O)NCCNC(=O)c2cc(C=C(C)C)nc(NC#N)n2)nc(NC#N)n1 : > 100 µM (inactive)
COc1ccc(C2=NN(C(=O)c3ccc(Cl)cc3)C(O)(c3cc(F)c(Cl)cc3Cl)C2)cc1OC (stereo not given) : 58.1 µM (inactive)

Consider now this further molecule.
Task item: Reported GI50, molecule "O=C1CCN2c3ccccc3[C@H]3Cc4cccc(c4[C@@H]2C3)CCO1" : ____
Reply: 31.7 µM (inactive)

* * *

test system: Malme-3M; assay: NCI tumour cell line growth inhibition, 48 h
Calls of active or inactive are those of the source. Rule as the data show it: active = GI50 up to about 1.1 µM and inactive = higher.
QUANTITY KIND: GI50

CCCCCCCC(=O)N/N=C/c1ccc(Sc2nccn2C)c([N+](=O)[O-])c1 : 14.4 µM (inactive)
NC(=O)CC(N)c1nnn[nH]1 (stereo not given) : > 100 µM (inactive)
CC(C)(C)OC(=O)NC(CCC(=O)OCc1ccccc1)C(=O)NCCCO (stereo not given) : > 100 µM (inactive)
Cc1[nH]nc2c1C(=O)C=C(N(CCO)c1ccccc1)C2=O : > 100 µM (inactive)
N=c1c2c(=S)n(-c3ccccc3)c(=S)n(-c3ccccc3)c2nc(SCCCN2CCN(c3cccc(Cl)c3)CC2)n1-c1ccccc1 : > 100 µM (inactive)

Task item: Reported GI50, compound "CCCC(=O)OCOC(=O)N(C)/N=N/c1ccc(C(=O)OCC)cc1" : ____
Reply: 20.1 µM (inactive)

Task item: Reported GI50, compound "CC(C)=CCC[C@@H](C)/C=C/C=C(\C)C(=O)CC[C@@H]1CC[N@+]2(C)CCCC[C@H]12" : ____
Reply: 79.8 µM (inactive)

Task item: Reported GI50, compound "Cc1ccc(-c2nnc(-c3ccc4ccccc4c3)o2)cc1" : ____
Reply: 5.38 µM (inactive)

* * *

system: SW-620; experiment: NCI tumour cell line growth inhibition, 48 h
The source made the active and inactive calls. No stated cut-off is given here; in the data, active = GI50 up to about 1.1 µM and inactive = higher.
Use one of these outcomes when replying: t = active, f = inactive

These recorded examples may help you get a feel for the data.
O=C1CCC2(O)C3Cc4ccc(Oc5nnnn5-c5ccccc5)c5c4C2(CCN3CC2CC2)C1O5 (stereo not drawn) : f
C/C(=N\O)C1CC(CC(=O)O)C1(C)C (stereo not drawn) : f
CC1(C)OC[C@@H](/C=C\CCO[Si](c2ccccc2)(c2ccccc2)C(C)(C)C)N1C(=O)c1ccccc1 : f
COC(=O)c1cc(OC(C)=O)c2c(OC)ccc(OC)c2c1 : f

Task item: Entry "Cc1c(Cl)cccc1NC(=O)C(=O)C1C(=O)NC(=O)NC1=O" : call = ?
Reply: f

Task item: Entry "CCN1C(=O)C(=Cc2ccc(-c3ccccc3)cc2)C(=O)N(CC)C1=S" : call = ?
Reply: f

Task item: Entry "CCCCCCCC(=O)N/N=C/c1ccc(Sc2nccn2C)c([N+](=O)[O-])c1" : call = ?
Reply: f

Task item: Entry "COc1c(-c2nc3ccc(N4CCN(C)CC4)nc3[nH]2)cc(OC)c2[nH]c(CO)nc12" : call = ?
Reply: f

Task item: Entry COP1(=O)CC2C(Cl)(Cl)C2(C)C1 (stereo not drawn) : call = ?
Reply: f

Task item: Entry "CN(c1ccccc1)c1cc2ccccc2nn1" : call = ?
Reply: f

Task item: Entry "O=C1c2ccccc2-c2cc3ccccc3c(=O)n21" : call = ?
Reply: f

Task item: Entry "Cc1nc(N)c(N2CCN(C#N)CC2)c(O)n1" : call = ?
Reply: f

* * *

tested on: OVCAR-3; assay: NCI tumour cell line growth inhibition, 48 h
The source made the active and inactive calls. No stated cut-off is given here; in the data, active = GI50 up to about 1.1 µM and inactive = higher.
Use one of these outcomes when replying: YES for active, NO for inactive

These recorded examples may help you get a feel for the data.
COc1ccc(OC)c(Cc2cnc3nc(N)nc(N)c3c2C)c1 [PIRITREXIM ISETHIONATE] : YES
C[C@]12CC[C@@H]3c4ccc(O)cc4CC[C@H]3[C@@H]1C/C(=C\c1ccc([N+](=O)[O-])cc1)C2=O : NO
COC(=O)c1cc(C)c(C)c2c1NC(=O)CNC2=O : NO
CCC12CN(C(=O)OC)C3C(Br)C1CCC(=O)C32 (stereo unspecified) : NO
NC(Cc1ccccc1)C(=O)OCN1C(=O)C2C3C=CC(C2C1=O)C1C2C(=O)N(COC(=O)C(N)Cc4ccccc4)C(=O)C2C31 (stereo unspecified) : NO
CCOC(=O)c1c(N2CCOCC2)[nH]c(=O)c(C(c2ccc(N(C)C)cc2)c2c(O)c(C(=O)OCC)c(N3CCOCC3)[nH]c2=O)c1O : NO
NC(Cc1ccc(O)cn1)C(=O)NC(C(=O)O)c1ccccc1 (stereo unspecified) : NO
C[n+]1cccc2ccc3cccnc3c21 : NO
CC(=O)OC1CCCn2c1nc1c2C(=O)C(C)=C(N2CC2)C1=O (stereo unspecified) : YES
NCCNCCCNC(=O)c1cc(-c2ccccc2)nc2ccccc12 : NO

Task item: Entry "O=C(/C=C1\Nc2ccc([N+](=O)[O-])cc2N\C1=C/C(=O)c1ccc(F)cc1)c1ccc(F)cc1" : call = ?
Reply: NO

Task item: Entry "CN(C)c1ccc(/C=c2\c3ccccc3n3c2cc(-c2ccccc2)[n+]3C)cc1" : call = ?
Reply: YES

Task item: Entry "C=C1c2nc3ccccc3n2C=C(c2ccccc2)N1c1ccc(Cl)cc1" : call = ?
Reply: NO

Task item: Entry "O=c1oc2ccc3ccccc3c2cc1-c1nc2ccccc2o1" : call = ?
Reply: NO

Task item: Entry "COC(=O)C1(Cc2ccccc2)Cc2cc3c(cc2C1)CCC3" : call = ?
Reply: NO

Task item: Entry "COc1cc(CNc2nc3cc(C(F)(F)F)ccc3nc2C(=O)O)cc(OC)c1OC" : call = ?
Reply: NO

Task item: Entry CCOC(=O)/C=C1/Oc2ccccc2C1(C)O (stereo unspecified) : call = ?
Reply: NO
